measured target: THOC4 (ALYREF) (UniProt Q86V81 Q86V81:2-257)
method summary: EMSA; 10 mM Tris pH 8.0, 100 mM NaCl, 1 mM EDTA, 37C
Reported pKd is given for each of the following binders.
# pKd is unitless: minus log10 of the molar concentration; print number only

Sample records with pKd:
[
  {
    "binder": "CCAGUGAGCCGGACUUGCCU (ssRNA, 2'-OMe all, PS all) [LSA_In3E3]",
    "observed measurement": 7.09
  },
  {
    "binder": "GAGAACCGACUCGGGUAGAG (ssRNA, 2'-OMe all, PS all) [cdca3_L_ATG-3]",
    "observed measurement": 7.24
  },
  {
    "binder": "CUGAAGCGUACCCUUUGGUG (ssRNA, 2'-OMe all, PS all) [ASO_E3E4]",
    "observed measurement": 7.15
  },
  {
    "binder": "CGCGUCACUCGCACUCGCCU (ssRNA, 2'-OMe all, PS all) [LSA_In3E3_CT5]",
    "observed measurement": 6.90
  },
  {
    "binder": "CUCUUGGCUGAGCCCAUCUC (ssRNA, 2'-OMe all, PS all) [cdca3_A_ATG-3]",
    "observed measurement": 6.87
  },
  {
    "binder": "CACGUACCUUAGUGCCUCAC (ssRNA, 2'-OMe all, PS all) [Open_L_1]",
    "observed measurement": 6.98
  },
  {
    "binder": "CUCAUUCCUACCGACACCCC (ssRNA, 2'-OMe all, PS all) [Neg_C]",
    "observed measurement": 6.82
  }
]

Consider now this further binder.
[in] // pKd lookup, key: GUGCAUGGAAUCACGGAGUG (ssRNA, 2'-OMe all, PS all) [Open_A_1]
[out] 7.28
